List of activity change, negative = inhibition values.
Biological target: Phenylethanolamine N-methyltransferase (Homo sapiens) (UniProt P11086)
Sequence (P11086 whole entry, looked up): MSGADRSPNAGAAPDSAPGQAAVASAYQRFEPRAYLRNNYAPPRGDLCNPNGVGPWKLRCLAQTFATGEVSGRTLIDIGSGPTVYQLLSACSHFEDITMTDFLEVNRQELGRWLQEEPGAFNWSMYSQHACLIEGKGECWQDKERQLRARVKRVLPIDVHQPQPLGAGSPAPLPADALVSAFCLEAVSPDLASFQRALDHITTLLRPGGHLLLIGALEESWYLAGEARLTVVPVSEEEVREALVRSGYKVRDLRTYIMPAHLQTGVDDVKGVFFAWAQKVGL
Assay: Primary Screen for Target Class Profiling of Small Molecule Inhibitors of Methyltransferases; note: % is set by controls: 0 for no effect and ±100 for the full control effect
Details: purified enzyme, MTase-Glo SAH luminescence; measured here: PNMT inhibition; at 40 µM; stronger effect = lower value
The whole screen tested about 25,000 compounds, of which about 970 (3.9%) were called active. About 8% were inconclusive and are not listed. The full list was thinned out, with actives kept by preference.
assayEndpoint: activity change, negative = inhibition

INSERT INTO results (molecule, observedvalue) VALUES
  ('O=C(C1CC1)N1CCn2c(nn(-c3ccc(F)cc3)c2=O)C1', '-5.36%'),
  ('CCOc1ccc(CNC(=O)c2cc3n(n2)CC(C)(C(=O)NCc2ccc(F)cc2)N(C)C3=O)cc1OC (stereo not given)', '6.92%'),
  ('CCc1ccc(NS(=O)(=O)c2cc3c(cc2C)n(C)c(=O)n3C)cc1', '-1.81%'),
  ('O=C(N[C@@H]1CN(C2CCOCC2)CC[C@@H]1CO)c1ccccc1', '-14.2%'),
  ('CCCn1c(=O)c2ccc(C(=O)NC(C)CC)cc2n2c(=O)n(CC(=O)Nc3cc(C)cc(C)c3)nc12 (stereo not given)', '3.91%'),
  ('Cc1cc(C[C@@H]2COC[C@@H]2NC(=O)c2cccc(-n3nc(C)cc3C)c2)on1', '-25.6%'),
  ('COc1ccc(CCN2C(=O)c3ccc(-c4ccco4)n3CC2(C)C(=O)NCc2ccc(Cl)cc2)cc1OC (stereo not given)', '-1.05%'),
  ('CSc1cccc(CN(C)Cc2cc3n(n2)CCNC3)c1', '-8.63%'),
  ('CC1(C)[C@H](Cc2cc(-c3ccccc3)on2)C[C@@H]1NCC1CC1', '-50.1%'),
  ('CCCc1sc(NC(=O)C[C@H]2NC(=O)c3ccccc3NC2=O)nc1C(=O)OC', '-7.16%');
